test: growth inhibition of non-replicating M. tuberculosis (AID 488890); settings: Mycobacterium tuberculosis non-replicating, at 25 µM, stronger effect = higher value;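 also: plate controls were DMSO cells for no effect and high antibiotic wells for full effect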
Hit rate of the full screen: of about 320,000 compounds, about 1,300 (0.41%) were called active. Roughly 3% stayed inconclusive and do not appear here. These entries were drawn from the full list. Results with a measured potency or affinity are listed apart.
Documented inhibition across a set of compounds

Solved cases below.
# Compound, inhibition
data = [
    ("CCOC(=O)Cc1cc(=O)n2[nH]cc(-c3ccc(Cl)cc3)c2n1", "81.6%"),
    ("Cn1ccnc1SCC(=O)Nc1cccc(O)c1", "1.05%"),
    ("O=C(CCc1nnc(CCCCc2ccccc2)o1)NCCC1CCCCO1 (configuration not stated)", "15.1%"),
    ("Cc1ccc2c(c1)N(C)/C(=C/c1cccc[n+]1CCO)S2", "6.55%"),
    ("COc1ccccc1/C=C/C(=O)OCCN1C(=O)c2ccccc2C1=O", "2.64%"),
]

What value of inhibition has been recorded for this entry: CCOC(=O)Cc1c(C)nc2c(-c3ccccc3)c(C)[nH]n2c1=O 23.1%

// next record COc1ccc(CCNCC(O)COc2cccc(Br)c2)cc1 (configuration not stated) 45.7%

// next record CCOC(=O)Cc1c(C)nc2c(-c3cccc(Br)c3)cnn2c1C -10.5%

// next record CCOC(=O)Cc1c(C)nc2c(C#N)c[nH]n2c1=O -14.1%

// next record O=C(COC(=O)c1cccnc1Cl)NCCCc1ccccc1 27.7%

// next record Cc1sc(NC(=O)c2oc3ccccc3c2C)c(C#N)c1C 0.16%

// next record O=C(CCc1c[nH]c2ccccc12)N[C@@H](Cc1c[nH]c2ccc(O)cc12)C(=O)O -12.9%

###

Documented inhibition across a set of molecules
assay: growth inhibition of non-replicating M. tuberculosis (AID 488890); conditions: Mycobacterium tuberculosis non-replicating, at 25 µM, stronger effect = higher value;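 also: plate controls were DMSO cells for no effect and high antibiotic wells for full effect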
Hit rate of the full screen: of about 320,000 compounds, about 1,300 (0.41%) were called active. Not shown: some 3% with an inconclusive outcome. Only a sample is shown. Results with a measured potency or affinity are listed apart.
I only need the number, in %, no unit after it.

# Line Notation, U, inhibition
rows = [
    ("CCSc1nnc(-c2ccncc2)o1", "%", 0.24),
    ("COc1ccc(-c2nnc(SCC#CCO)o2)cc1OC", "%", 45.7),
    ("CCc1ccccc1Nc1nc2ccccc2n1C", "%", 43.6),
    ("O=C(O)c1ccc(-c2nnc(-c3ccc([N+](=O)[O-])cc3)o2)cc1", "%", -2.79),
    ("C/C(=N\\O)c1ccc(Cl)cc1Cl", "%", 1.76),
    ("C/C(=N\\O)c1cc(Cl)cc(Cl)c1O", "%", 19),
]

Next item in the queue.
What value of inhibition has been recorded for this entry: Oc1ccc(-c2nnc(SCc3ccccc3)o2)cc1 77.5

###

assay: growth inhibition of non-replicating M. tuberculosis (AID 488890); details: Mycobacterium tuberculosis non-replicating, at 25 µM, stronger effect = higher value;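 also: plate controls were DMSO cells for no effect and high antibiotic wells for full effect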
Hit rate of the full screen: of about 320,000 compounds, about 1,300 (0.41%) were called active. Inconclusive results (about 3%) are left out. The list is a sample of the results. Results with a measured potency or affinity are listed apart.
Documented inhibition across a set of compounds
I only need the number, in %, no unit after it.

Solved cases below.
# Compound, Measured
data = [
    ("C/C(=N/NC(=O)c1ccncc1)c1ccccc1", 49.1),
    ("Cc1ccc(N=CC2=C(O)CC(c3ccccc3Cl)CC2=O)cc1 (stereo unspecified)", 2.23),
    ("NC1=NC[C@H](Cc2ccccc2)N1CC1CCCCC1", 17),
    ("CC(NC(=O)c1cc(S(=O)(=O)N2CCOCC2)ccc1N1CCCC1)c1ccc(Cl)c(Cl)c1 (stereo unspecified)", 4.97),
    ("N#Cc1nc(N2CCCCC2)nc(N2CCOCC2)n1", 13.1),
    ("CC1(C)OC(c2ccccc2)=C/C(=C/C=Nc2ccccc2)O1", 14.4),
]

What value of inhibition has been recorded for this entry: Cc1ccc(C(=O)N/C(=C/c2ccc(Cl)cc2)C(=O)Nc2cccc(C(=O)O)c2)cc1 17

// next record Cc1ccccc1N=C/C=C1/C=C(c2ccccc2)OC(C)(C)O1 32.8

// next record O=C(O)CC/C(=N\NC(=O)c1ccncc1)c1ccccc1 37.3

// next record O=C(N/N=C/c1ccncc1)c1ccccc1 67.6

// next record CN(C(=O)COC(=O)c1ccccc1SCC(=O)N1CCCC1)C1CCS(=O)(=O)C1 (stereo unspecified) -9.96

Entry source: PubChem BioAssay AID488890
